- Tested on: pneumococci with ciprofloxacin MICs ≧8 μg/ml
- experiment: Quinolone agar dilution MICs of 28 ciprofloxacin resistant pneumococcal strains, correlated with QRDR mutations
- Assay type: cell-based, Streptococcus pneumoniae
- protocol-conditions: Streptococcus pneumoniae, strain 11; ParC S79-F, ParE I460-V, GyrA S83-F, GyrB None
- Experimental: Additionally these strains were tested for mutations in parC, gyrA, parE, and gyrB (Pan, et al. Antimicrob. Agents Chemother. 40:2321-2326, 1996) and for efflux mechanism (Brenwald, et ail., Antimicrob. Agents Chemother. 42:2032-2035, 1998). Gemifloxacin susceptibility powder was obtained from SmithKline Beecham Laboratories, Harlow, UK. […]
test-readout: MIC (µg/mL)
// return numeric value only (unit: µg/mL, not printed)

Past entries and their recorded results:
>>> reading("Cc1c(F)c(N2CCNC(C)C2)cc2c1c(=O)c(C(=O)O)cn2C1CC1 (stereo not shown) [Grepafloxacin, grepafloxacin]")
4
>>> reading("N[C@@H]1[C@H]2CN(c3nc4c(cc3F)c(=O)c(C(=O)O)cn4-c3ccc(F)cc3F)C[C@@H]12 [Trovafloxacin, trovafloxacin]")
1
>>> reading("C[C@@H]1CN(c2c(F)c(N)c3c(=O)c(C(=O)O)cn(C4CC4)c3c2F)C[C@H](C)N1 [Sparfloxacin, sparfloxacin]")
4

The record that follows has no MIC shown yet.
// query Note down MIC recorded for CO/N=C1\CN(c2nc3c(cc2F)c(=O)c(C(=O)O)cn3C2CC2)CC1CN (racemic) [Gemifloxacin]
// result 0.125
